# Tested on: Clostridioides difficile
# assayDetails: Antibacterial activity against Clostridioides difficile ATCC 43255 assessed as reduction in microbial growth incubated for 48 hrs by broth microdilution method
# Assay type: functional
measurementName: MIC (µg/mL)
Numbers only, in µg/mL.

Take each entry in turn and give its MIC.
1. O=C(Nc1ncc([N+](=O)[O-])s1)C1CN(c2ccc(Cl)cc2)N(c2ccc(Cl)cc2)C1=O (centres undefined)
2. CCc1c(Cl)c(O)c(Cl)c(O)c1C(=O)O[C@H]1[C@H](O)[C@H](OC)[C@H](OC/C2=C\C=C\C[C@H](O)/C(C)=C/[C@H](CC)[C@@H](O[C@@H]3OC(C)(C)[C@@H](OC(=O)C(C)C)[C@H](O)[C@@H]3O)/C(C)=C/C(C)=C/C[C@@H]([C@@H](C)O)OC2=O)O[C@@H]1C
3. CN[C@H](CC(C)C)C(=O)N[C@H]1C(=O)N[C@@H](CC(N)=O)C(=O)N[C@H]2C(=O)N[C@H]3C(=O)N[C@H](C(=O)N[C@H](C(=O)O)c4cc(O)cc(O)c4-c4cc3ccc4O)[C@H](O)c3ccc(c(Cl)c3)Oc3cc2cc(c3O[C@@H]2O[C@H](CO)[C@@H](O)[C@H](O)[C@H]2O[C@H]2C[C@](C)(N)[C@H](O)[C@H](C)O2)Oc2ccc(cc2Cl)[C@H]1O
4. O=C(Nc1ncc([N+](=O)[O-])s1)C1CN(c2cccc(Cl)c2)N(c2cccc(Cl)c2)C1=O (centres undefined)

### Response
1: 0.25; 2: 0.03; 3: 0.5; 4: 0.125

----------
# Test system: Staphylococcus aureus
# assayDetails: Antibacterial activity against Staphylococcus aureus Newman D2C NCTC 10833 assessed as reduction in microbial growth incubated for 16 hrs by serial dilution method
# Assay type: functional
measurementName: MIC (µM)
Give bare numbers, in µM.

compound | unitSpec | measurement
O=C(Nc1nc(C(F)(F)F)cs1)C1CN(c2cccc(Cl)c2)N(c2cccc(Cl)c2)C1=O (stereo not given) | µM | 40

Could you now look at the following compound, please?
### Prompt Returns the measured MIC for the input compound. Input: O=C(Nc1ncc([N+](=O)[O-])s1)C1CN(c2ccc(Cl)cc2)N(c2ccc(Cl)cc2)C1=O (stereo not given)
### Response 10

----------
So I've got a bunch of compounds here, and I need their MIC values.
# System: Staphylococcus aureus
# assayDetails: Antibacterial activity against methicillin resistant Staphylococcus aureus USA300 assessed as reduction in microbial growth by CLSI based broth microdilution method
# Type: functional
One number for each entry, in µg/mL.

compound | MIC (µg/mL)
O=C(Nc1ncc([N+](=O)[O-])s1)C1CN(c2ccc(Cl)cc2)N(c2ccc(Cl)cc2)C1=O (centres undefined) | 32
N#Cc1cnc(NC(=O)C2CN(c3cccc(Cl)c3)N(c3cccc(Cl)c3)C2=O)s1 (centres undefined) | 32
O=C(Nc1ncc([N+](=O)[O-])s1)C1CN(c2cccc(Cl)c2)N(c2cccc(Cl)c2)C1=O (centres undefined) | 4

# evaluate next
### Prompt # value lookup — system Staphylococcus aureus, readout MIC, item CC(=O)NC[C@H]1CN(c2ccc(N3CCOCC3)c(F)c2)C(=O)O1
### Response 1

----------
Please go through the items and note down their MIC.
# Tested on: Clostridioides difficile
# assayDetails: Antibacterial activity against Clostridioides difficile ATCC BAA1870 assessed as reduction in microbial growth incubated for 48 hrs by broth microdilution method
# Format: functional
Numbers only, in µg/mL.

Take a look at these entries with their results.
compound | testedOn | measurement
O=C(Nc1ncc([N+](=O)[O-])s1)C1CN(c2cccc(Cl)c2)N(c2cccc(Cl)c2)C1=O (stereo not given) | Clostridioides difficile | 0.25
N#Cc1cnc(NC(=O)C2CN(c3cccc(Cl)c3)N(c3cccc(Cl)c3)C2=O)s1 (stereo not given) | Clostridioides difficile | 32
CC(=O)NC[C@H]1CN(c2ccc(N3CCOCC3)c(F)c2)C(=O)O1 [LINEZOLID] | Clostridioides difficile | 1
CN[C@H](CC(C)C)C(=O)N[C@H]1C(=O)N[C@@H](CC(N)=O)C(=O)N[C@H]2C(=O)N[C@H]3C(=O)N[C@H](C(=O)N[C@H](C(=O)O)c4cc(O)cc(O)c4-c4cc3ccc4O)[C@H](O)c3ccc(c(Cl)c3)Oc3cc2cc(c3O[C@@H]2O[C@H](CO)[C@@H](O)[C@H](O)[C@H]2O[C@H]2C[C@](C)(N)[C@H](O)[C@H](C)O2)Oc2ccc(cc2Cl)[C@H]1O [VANCOMYCIN] | Clostridioides difficile | 1

### Prompt Report MIC for O=C(Nc1ncc([N+](=O)[O-])s1)C1CN(c2ccc(Cl)cc2)N(c2ccc(Cl)cc2)C1=O (stereo not given) please.
### Response 0.5

----------
# Tested on: Bifidobacterium angulatum
# assayDetails: Antibacterial activity against Bifidobacterium angulatum HM 1189 assessed as reduction in microbial growth incubated for 48 hrs by broth microdilution method
# Format: functional
Answer each item with its documented MIC.

Some solved entries appear below for comparison.
molecule | testedOn | MIC
O=C(Nc1ncc([N+](=O)[O-])s1)C1CN(c2ccc(Cl)cc2)N(c2ccc(Cl)cc2)C1=O (centres undefined) | Bifidobacterium angulatum | > 64 µg/mL
O=C(Nc1ncc([N+](=O)[O-])s1)C1CN(c2cccc(Cl)c2)N(c2cccc(Cl)c2)C1=O (centres undefined) | Bifidobacterium angulatum | 32 µg/mL
CN[C@H](CC(C)C)C(=O)N[C@H]1C(=O)N[C@@H](CC(N)=O)C(=O)N[C@H]2C(=O)N[C@H]3C(=O)N[C@H](C(=O)N[C@H](C(=O)O)c4cc(O)cc(O)c4-c4cc3ccc4O)[C@H](O)c3ccc(c(Cl)c3)Oc3cc2cc(c3O[C@@H]2O[C@H](CO)[C@@H](O)[C@H](O)[C@H]2O[C@H]2C[C@](C)(N)[C@H](O)[C@H](C)O2)Oc2ccc(cc2Cl)[C@H]1O | Bifidobacterium angulatum | 1 µg/mL

Okay, next one:
### Prompt For the molecule shown here, CCc1c(Cl)c(O)c(Cl)c(O)c1C(=O)O[C@H]1[C@H](O)[C@H](OC)[C@H](OC/C2=C\C=C\C[C@H](O)/C(C)=C/[C@H](CC)[C@@H](O[C@@H]3OC(C)(C)[C@@H](OC(=O)C(C)C)[C@H](O)[C@@H]3O)/C(C)=C/C(C)=C/C[C@@H]([C@@H](C)O)OC2=O)O[C@@H]1C , give the reported MIC.
### Response ≤ 0.06 µg/mL

----------
# testedOn: UDP-N-acetylglucosamine 1-carboxyvinyltransferase (Escherichia coli K-12) (UniProt P0A749)
# Sequence (P0A749 whole entry): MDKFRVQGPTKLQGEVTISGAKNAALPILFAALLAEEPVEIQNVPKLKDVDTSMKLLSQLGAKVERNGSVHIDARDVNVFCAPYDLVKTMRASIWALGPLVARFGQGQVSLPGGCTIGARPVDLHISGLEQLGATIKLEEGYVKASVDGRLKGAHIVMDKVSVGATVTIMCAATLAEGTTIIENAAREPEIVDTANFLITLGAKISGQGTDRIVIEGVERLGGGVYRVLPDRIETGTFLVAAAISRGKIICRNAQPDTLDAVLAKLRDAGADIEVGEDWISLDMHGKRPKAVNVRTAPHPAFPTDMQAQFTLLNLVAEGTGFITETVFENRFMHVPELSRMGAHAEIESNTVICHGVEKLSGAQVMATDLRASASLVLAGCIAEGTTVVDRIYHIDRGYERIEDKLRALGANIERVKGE
# assayDetails: Inhibition of Escherichia coli K12 His-tagged MurA expressed in Escherichia coli BL21 cells at 50 uM using UNAG as substrate pre incubated for 15 mins followed by substrate addition and measured after 15 mins by microplate reader analysis relative to control
# protocolConditions: time 30.0 min
Activity calls are given as the source filed them. The rule behind the calls is not given here.
measurementName: inhibition

Known inhibition results, listed for orientation:
molecule | inhibition
O=C(Nc1ncc(Cl)s1)C1CN(c2cccc(Cl)c2)N(c2cccc(Cl)c2)C1=O (configuration not stated) | 67.7%
O=C(NCc1ccccn1)C1CN(c2cccc(Cl)c2)N(c2cccc(Cl)c2)C1=O (configuration not stated) | inactive
O=C(Nc1ccc2[nH]cnc2c1)C1CN(c2cccc(Cl)c2)N(c2cccc(Cl)c2)C1=O (configuration not stated) | 74.2%
O=C(NCc1ccncc1)C1CN(c2cccc(Cl)c2)N(c2cccc(Cl)c2)C1=O (configuration not stated) | inactive
CN1C(=O)C(C(=O)NC2CCSC2=O)CN1c1cccc(Cl)c1 (configuration not stated) | inactive

Provide inhibition for all items below, preserving their order.
1. N#Cc1cnc(NC(=O)C2CN(c3ccccc3)N(c3ccccc3)C2=O)s1 (configuration not stated)
2. O=C(Nc1nc(C(F)(F)F)cs1)C1CN(c2cccc(Cl)c2)N(c2cccc(Cl)c2)C1=O (configuration not stated)
3. O=C(Nc1cccnc1)C1CN(c2cccc(Cl)c2)N(c2cccc(Cl)c2)C1=O (configuration not stated)
4. O=C(Nc1ccsc1)C1CN(c2cccc(Cl)c2)N(c2cccc(Cl)c2)C1=O (configuration not stated)
5. O=C(Nc1cncc(Cl)c1)C1CN(c2cccc(Cl)c2)N(c2cccc(Cl)c2)C1=O (configuration not stated)
6. O=C(NCc1ccco1)C1CN(c2cccc(Cl)c2)N(c2cccc(Cl)c2)C1=O (configuration not stated)
7. O=C1SCCC1NC(=O)C1CN(c2cccc(Cl)c2)N(c2cccc(Cl)c2)C1=O (configuration not stated)

### Response
1. inactive
2. 59.2%
3. 8.7%
4. 24.7%
5. 18.2%
6. 34%
7. 35%

----------
Please go through the items and note down their MIC.
# Test system: Clostridioides difficile
# assayDetails: Antibacterial activity against Clostridioides difficile NR-49278 assessed as reduction in microbial growth incubated for 48 hrs by broth microdilution method
# Assay type: functional
Give bare numbers, in µg/mL.

Example compounds with recorded MIC:
compound | measurement
O=C(Nc1ncc([N+](=O)[O-])s1)C1CN(c2ccc(Cl)cc2)N(c2ccc(Cl)cc2)C1=O (centres undefined) | 0.5
CN[C@H](CC(C)C)C(=O)N[C@H]1C(=O)N[C@@H](CC(N)=O)C(=O)N[C@H]2C(=O)N[C@H]3C(=O)N[C@H](C(=O)N[C@H](C(=O)O)c4cc(O)cc(O)c4-c4cc3ccc4O)[C@H](O)c3ccc(c(Cl)c3)Oc3cc2cc(c3O[C@@H]2O[C@H](CO)[C@@H](O)[C@H](O)[C@H]2O[C@H]2C[C@](C)(N)[C@H](O)[C@H](C)O2)Oc2ccc(cc2Cl)[C@H]1O | 0.5
O=C(Nc1ncc([N+](=O)[O-])s1)C1CN(c2cccc(Cl)c2)N(c2cccc(Cl)c2)C1=O (centres undefined) | 0.5

Then there is this compound:
### Prompt # get_value(readout='MIC', item= CCc1c(Cl)c(O)c(Cl)c(O)c1C(=O)O[C@H]1[C@H](O)[C@H](OC)[C@H](OC/C2=C\C=C\C[C@H](O)/C(C)=C/[C@H](CC)[C@@H](O[C@@H]3OC(C)(C)[C@@H](OC(=O)C(C)C)[C@H](O)[C@@H]3O)/C(C)=C/C(C)=C/C[C@@H]([C@@H](C)O)OC2=O)O[C@@H]1C )
### Response 0.06
